Molecular target: hSARM1 full length (Homo sapiens, UniProt Q6SZW1)
Construct: Human recombinant SARM1 full length proteins (wild-type and E642A mutant); made in house
Sequence (Q6SZW1 28-724): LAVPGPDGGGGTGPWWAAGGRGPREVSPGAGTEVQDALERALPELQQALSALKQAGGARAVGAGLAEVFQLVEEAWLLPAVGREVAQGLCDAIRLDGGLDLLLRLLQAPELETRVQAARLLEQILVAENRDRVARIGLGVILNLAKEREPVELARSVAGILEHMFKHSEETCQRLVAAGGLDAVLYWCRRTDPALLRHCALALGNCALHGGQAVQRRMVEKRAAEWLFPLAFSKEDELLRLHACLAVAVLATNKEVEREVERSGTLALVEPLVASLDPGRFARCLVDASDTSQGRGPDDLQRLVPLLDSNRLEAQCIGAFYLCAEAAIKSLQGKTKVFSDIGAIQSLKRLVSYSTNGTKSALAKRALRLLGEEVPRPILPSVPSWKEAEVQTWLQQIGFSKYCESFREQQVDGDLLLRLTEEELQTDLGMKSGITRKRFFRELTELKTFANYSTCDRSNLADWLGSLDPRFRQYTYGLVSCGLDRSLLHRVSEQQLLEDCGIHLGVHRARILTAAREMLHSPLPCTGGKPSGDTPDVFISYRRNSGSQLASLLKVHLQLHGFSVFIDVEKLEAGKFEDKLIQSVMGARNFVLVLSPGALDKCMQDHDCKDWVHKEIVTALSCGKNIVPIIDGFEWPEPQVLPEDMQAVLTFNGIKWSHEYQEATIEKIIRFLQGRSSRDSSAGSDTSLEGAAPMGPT
Experiment: Base exchange reactions at neutral pH (HPLC)
Assay type: biochemical
Conditions: hSARM1 full length +NMN 0.2 mM; NAD […]
Here the recorded cyclization, share of products is given for each entry.
READOUT LABEL: cyclization, share of products (%)

1. NC(=O)c1ccc[n+]([C@@H]2O[C@H](COP(=O)([O-])O)[C@@H](O)[C@H]2O)c1 [NMN, nicotinamide mononucleotide]    9.51
2. O=C(NCc1cccnc1)Nc1ccc([N+](=O)[O-])cc1 [Vacor]    7.06
3. CC(=O)c1cccnc1 [AcPyr, 3-acetylpyridine]    0.80
4. O=C(O)c1cccnc1 [Na, nicotinic acid]    8.35

----------
molecular target: hCD38 (Homo sapiens, UniProt P28907); construct: a soluble fragment Val43-Ile300 with 6x-His tag at C terminus; 6xHis (C); purchased R&D Systems; assay: Base exchange reactions at neutral pH (HPLC); assay type: biochemical; conditions: NAD […] alone or + AcPyr 2 mM / Vacor 0.5 mM / Na 2 mM
Sequence (P28907 43-300): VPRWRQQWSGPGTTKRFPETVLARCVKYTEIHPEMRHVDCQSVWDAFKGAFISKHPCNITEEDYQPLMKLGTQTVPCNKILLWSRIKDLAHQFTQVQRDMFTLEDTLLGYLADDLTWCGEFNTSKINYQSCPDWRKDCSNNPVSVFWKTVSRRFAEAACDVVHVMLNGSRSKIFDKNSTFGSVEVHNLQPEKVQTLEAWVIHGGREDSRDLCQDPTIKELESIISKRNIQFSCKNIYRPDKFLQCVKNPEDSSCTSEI
Here the recorded rate is given for each entry.
READOUT LABEL: rate (mU/mg)

1) NC(=O)c1ccc[n+]([C@@H]2O[C@H](COP(=O)([O-])OP(=O)(O)OC[C@H]3O[C@@H](n4cnc5c(N)ncnc54)[C@H](O)[C@@H]3O)[C@@H](O)[C@H]2O)c1 [NAD, nicotinamide adenine dinucleotide]    7798
2) O=C(O)c1cccnc1    7934
3) CC(=O)c1cccnc1    8284
4) O=C(NCc1cccnc1)Nc1ccc([N+](=O)[O-])cc1    6818

----------
Here the recorded hydrolysis, share of products is given for each entry.
Target: hSARM1 full length (Homo sapiens)
Construct: Human recombinant SARM1 full length proteins (wild-type and E642A mutant); made in house
Sequence (Q6SZW1 28-724): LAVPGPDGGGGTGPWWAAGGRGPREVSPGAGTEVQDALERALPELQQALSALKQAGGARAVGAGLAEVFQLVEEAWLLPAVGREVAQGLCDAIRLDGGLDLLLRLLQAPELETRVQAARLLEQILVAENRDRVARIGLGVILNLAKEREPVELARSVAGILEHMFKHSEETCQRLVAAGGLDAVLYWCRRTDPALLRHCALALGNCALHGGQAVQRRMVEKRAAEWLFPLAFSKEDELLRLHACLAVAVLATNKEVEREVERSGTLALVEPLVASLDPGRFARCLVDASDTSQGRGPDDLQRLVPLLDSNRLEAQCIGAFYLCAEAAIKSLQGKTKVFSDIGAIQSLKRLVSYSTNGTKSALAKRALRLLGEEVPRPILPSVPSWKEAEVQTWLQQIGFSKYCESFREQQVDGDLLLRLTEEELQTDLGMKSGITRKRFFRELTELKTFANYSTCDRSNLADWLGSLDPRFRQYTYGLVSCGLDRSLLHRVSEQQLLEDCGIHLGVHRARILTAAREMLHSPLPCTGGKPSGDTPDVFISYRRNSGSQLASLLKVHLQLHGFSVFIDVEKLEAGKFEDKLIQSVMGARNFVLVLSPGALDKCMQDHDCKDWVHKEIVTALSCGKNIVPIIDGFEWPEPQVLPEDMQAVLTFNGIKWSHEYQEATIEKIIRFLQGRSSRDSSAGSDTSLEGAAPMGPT
Assay: Base exchange reactions at neutral pH (HPLC)
Format: biochemical
Conditions: hSARM1 full length +VMN 0.05 mM; NAD […]
READOUT LABEL: hydrolysis, share of products

1. O=C(NCc1cccnc1)Nc1ccc([N+](=O)[O-])cc1    50.27%
2. O=C(O)c1cccnc1    91.88%
3. CC(=O)c1cccnc1    5.72%
4. O=C(NCc1ccc[n+]([C@@H]2O[C@H](COP(=O)(O)O)[C@@H](O)[C@H]2O)c1)Nc1ccc([N+](=O)[O-])cc1 [VMN, vacor mononucleotide]    91.21%
